Please provide measured YAP1 (% UT) for the entries that follow.
system: Yap1 mRNA; test: Antisense inhibition of human Yap1 in SNU-449 cells by modified oligonucleotides, single dose (Example 5, RTS36584); type: cell-based; settings: Table 48; Yap1 mRNA level relative to untreated control; modified oligonucleotides targeting SEQ ID NO.: 1 and 2
Strand notation (5' to 3'): a small letter for the sugar, then the base; units joined by * are phosphorothioate-linked, units joined directly phosphodiester-linked; [ ] holds rarer units or linkages, { } end groups; capitals alone tell only the bases. e = 2'-O-(2-methoxyethyl) (MOE); k = constrained ethyl (cEt); [5mC] = 5-methylcytosine; d = 2'-deoxy (DNA)
Give your result in % UT as a bare value.

**Query** Given the entry 1074727 (antisense kG*kA*kG*dG*dT*dA*dT*dA*dA*d[5mC]*dT*dG*dG*kG*k[5mC]*kA) [Compound 1074727] , report its measured YAP1 (% UT).
**Result** 51

**Query** Same question, 1197218 (antisense kT*kT*kT*dA*dA*dA*dG*dT*dG*dT*dA*dT*dG*kT*k[5mC]*kA) [Compound 1197218] this time
**Result** 29

**Query** Similarly, 1198318 (kT*kT*kT*dG*dG*dA*dA*dG*dA*dT*d[5mC]*dT*kG*eA*kA*eA; antisense) [Compound 1198318] ?
**Result** 120

**Query** And the next one, 1097247 (antisense kT*kA*kA*dA*dG*dT*dG*dT*dA*dT*dG*dT*d[5mC]*kA*kG*kA) [Compound 1097247] ?
**Result** 9

**Query** 958499 (kA*kT*kT*dA*dG*dA*dG*dT*dA*dT*dG*dT*dG*kG*k[5mC]*kA) [Compound 958499] , same question.
**Result** 15

**Query** Also 1198295 (kT*kA*kG*dA*dG*dT*dA*dT*dG*dT*dG*dG*k[5mC]*eA*kA*eT; antisense) [Compound 1198295] , if possible.
**Result** 15

**Query** Same question, 1198290 (kT*kG*kG*dA*dA*dA*dT*dT*dG*dT*d[5mC]*dT*k[5mC]*eA*kT*eG; antisense) [Compound 1198290] this time
**Result** 15

All values here come from patent US11214803B2.
